ASSAY: Cytotoxicity, crystal violet (CV) assay, HT-1080
COND: human, HT-1080 cells (fibrosarcoma)
METRIC: IC50 at 72 h

Guide cases for IC50 at 72 h, answers given:
CCCCCCCCCCCCOC(=O)C1=C(C[n+]2ccccc2)NC(C[n+]2ccccc2)=C(C(=O)OCCCCCCCCCCCC)C1c1ccccc1; ~30 mg/L
CCCCCCCCCCCCOC(=O)C1=C(C[n+]2ccc(C)cc2)NC(C[n+]2ccc(C)cc2)=C(C(=O)OCCCCCCCCCCCC)C1c1ccccc1.[Br-].[Br-]; 5 to 10 mg/L

Name the recorded IC50 at 72 h for O=C(OCCCCCCCCCCCC(F)(F)F)C1=C(C[n+]2ccccc2)NC(C[n+]2ccccc2)=C(C(=O)OCCCCCCCCCCCC(F)(F)F)C1c1ccccc1.[O-][Cl+3]([O-])([O-])[O-].[O-][Cl+3]([O-])([O-])[O-] .
10 to 18 mg/L

Name the recorded IC50 at 72 h for CCCCCCCCCCCCOC(=O)C1=C(C[n+]2cccc(C(C)=O)c2)NC(C[n+]2cccc(C(C)=O)c2)=C(C(=O)OCCCCCCCCCCCC)C1c1ccccc1.[Br-].[Br-] .
~3 mg/L

Name the recorded IC50 at 72 h for CCCCCCCCCCCCOC(=O)C1=C(C[n+]2ccc(C(F)(F)F)cc2)NC(C[n+]2ccc(C(F)(F)F)cc2)=C(C(=O)OCCCCCCCCCCCC)C1c1ccccc1.[Br-].[Br-] .
2 to 4 mg/L

Cited source for all entries: paper PMC7790557
